Hey, just so you know, these numbers are from patent US6184246A.

tested on: MIP-1α; assay: MIP-1α production by LPS-stimulated human monocytes (ELISA); assay type: cell-based; conditions: Monocyte; monocytes from three independent human donors, LPS, 14 h; read-out: IC50 for inhibition of MIP-1α
readoutType: IC50 (µM)
Reply numerically in µM, unit not repeated.

# IC50 lookup, item COc1ccc(-c2oc3c(OC)c(OC)c(OC)c(OC)c3c(=O)c2OC)cc1OC 7.3

###

tested on: IL-10; test: IL-10 production by LPS-stimulated human monocytes (ELISA); format: cell-based; settings: Monocyte; monocytes from three independent human donors, LPS, 14 h; read-out: IC50 for inhibition of IL-10
readoutType: pIC50
Please report pIC50 as the negative decimal logarithm of the molar concentration, giving only the number.

# pIC50 lookup, item COc1ccc(-c2oc3c(OC)c(OC)c(OC)c(OC)c3c(=O)c2OC)cc1OC 4.91
